Recorded efficacy (% GABA EC3) for the following compounds
system: recombinant rat α3β3γ2 receptors (Rattus norvegicus, UniProt P18508+P20236)
Sequence (P20236 29-493): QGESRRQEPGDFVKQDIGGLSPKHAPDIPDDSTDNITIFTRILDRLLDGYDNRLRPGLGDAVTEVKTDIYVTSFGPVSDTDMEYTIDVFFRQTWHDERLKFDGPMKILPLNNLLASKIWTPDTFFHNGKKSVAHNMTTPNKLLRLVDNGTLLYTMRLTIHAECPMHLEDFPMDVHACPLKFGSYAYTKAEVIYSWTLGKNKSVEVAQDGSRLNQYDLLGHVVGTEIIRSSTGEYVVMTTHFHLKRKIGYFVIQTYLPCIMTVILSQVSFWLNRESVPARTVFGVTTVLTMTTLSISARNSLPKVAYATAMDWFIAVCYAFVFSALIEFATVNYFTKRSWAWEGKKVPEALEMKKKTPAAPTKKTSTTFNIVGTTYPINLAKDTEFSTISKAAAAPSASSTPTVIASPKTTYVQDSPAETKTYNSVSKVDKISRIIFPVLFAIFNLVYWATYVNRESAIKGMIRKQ
Sequence (P63079 26-473 partner): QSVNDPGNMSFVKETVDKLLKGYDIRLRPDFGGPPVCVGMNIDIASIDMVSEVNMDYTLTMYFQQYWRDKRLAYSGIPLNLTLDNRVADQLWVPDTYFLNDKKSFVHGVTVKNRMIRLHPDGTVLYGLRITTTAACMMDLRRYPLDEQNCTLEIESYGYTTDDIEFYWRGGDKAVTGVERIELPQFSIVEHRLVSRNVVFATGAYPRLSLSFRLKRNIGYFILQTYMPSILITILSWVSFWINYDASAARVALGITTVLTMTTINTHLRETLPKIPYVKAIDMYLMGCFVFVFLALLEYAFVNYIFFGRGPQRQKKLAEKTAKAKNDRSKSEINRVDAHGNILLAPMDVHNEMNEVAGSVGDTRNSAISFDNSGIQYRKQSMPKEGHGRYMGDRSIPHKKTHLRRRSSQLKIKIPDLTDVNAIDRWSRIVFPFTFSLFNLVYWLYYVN
Sequence (P18508 39-466): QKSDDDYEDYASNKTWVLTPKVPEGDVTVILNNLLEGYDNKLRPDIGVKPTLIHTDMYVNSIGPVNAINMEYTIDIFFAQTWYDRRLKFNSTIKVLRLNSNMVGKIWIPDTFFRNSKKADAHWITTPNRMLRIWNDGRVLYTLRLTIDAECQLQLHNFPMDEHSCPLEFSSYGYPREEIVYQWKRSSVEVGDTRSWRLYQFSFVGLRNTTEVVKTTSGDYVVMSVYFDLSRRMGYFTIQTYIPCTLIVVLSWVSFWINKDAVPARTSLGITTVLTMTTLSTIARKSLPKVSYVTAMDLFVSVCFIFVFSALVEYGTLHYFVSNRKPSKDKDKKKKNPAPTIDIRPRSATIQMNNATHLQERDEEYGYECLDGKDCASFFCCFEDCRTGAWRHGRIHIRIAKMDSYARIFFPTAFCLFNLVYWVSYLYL
protocol_description: Two-electrode voltage clamp of GABA-induced chloride currents in Xenopus oocytes
Format: cell-based
assay_setup: 10 nM; α3β3γ2; ns = not significant
metric_name: efficacy (% GABA EC3)

[[record]]
substance_smiles = "CCc1c(C(=O)OC)ncc2[nH]c3cc(OC)c(OC)cc3c12"
units_symbol = "% GABA EC3"
observed = 78

[[record]]
substance_smiles = "CC(C)(C)OC(=O)c1ncn2c1[C@@H]1CCCN1C(=O)c1c(Br)cccc1-2"
units_symbol = "% GABA EC3"
observed = 154

[[record]]
substance_smiles = "CCOC(=O)c1ncn2c1CN(C)C(=O)c1cc(F)ccc1-2"
units_symbol = "% GABA EC3"
observed = 128

